biological target: 5-hydroxytryptamine receptor 6 (Homo sapiens, UniProt P50406)
Sequence (P50406 whole entry): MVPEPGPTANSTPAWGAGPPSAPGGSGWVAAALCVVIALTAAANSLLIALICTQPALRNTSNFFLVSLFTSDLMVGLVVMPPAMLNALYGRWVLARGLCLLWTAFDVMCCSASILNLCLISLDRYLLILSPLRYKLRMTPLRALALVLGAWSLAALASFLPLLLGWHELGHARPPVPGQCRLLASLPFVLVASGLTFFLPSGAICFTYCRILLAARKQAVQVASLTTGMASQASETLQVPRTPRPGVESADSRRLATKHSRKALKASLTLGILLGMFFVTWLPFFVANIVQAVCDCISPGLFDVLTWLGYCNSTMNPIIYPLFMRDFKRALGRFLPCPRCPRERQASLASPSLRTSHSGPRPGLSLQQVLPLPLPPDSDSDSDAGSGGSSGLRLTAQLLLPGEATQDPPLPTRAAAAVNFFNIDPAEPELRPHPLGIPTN
pKi: −log10 of the molar value.
Attribute measured: pKi

// pKi lookup, key: C=CCOc1ccc(F)cc1[C@H]1C[C@@H]1CN.Cl
> 6.00

====

molecular target: CYP3A (Homo sapiens, UniProt P08684+P20815+P24462+Q9HB55); assay: Inhibition of human CYP3A using midazolam as substrate at 10 uM; format: ADME; conditions: probe midazolam
Would you mind telling me the reported inhibition at 10 µM of each entry?
Give your result as the value with the unit written after it.

Entry under review: C=C(F)COc1ccc(Cl)cc1[C@H]1C[C@@H]1CN.Cl . Reported inhibition at 10 µM?
27%

Next molecule up: Cl.NC[C@H]1C[C@@H]1c1cc(Cl)ccc1OCCF
22%

====

Record form. Attribute: pEC50. Fill in for each entry.
target: 5-hydroxytryptamine receptor 2A (Homo sapiens, UniProt P28223); test: Agonist activity at human 5-HT2A receptor expressed in HEK293 cells assessed as calcium flux by FLIPR assay
Sequence (P28223 whole entry): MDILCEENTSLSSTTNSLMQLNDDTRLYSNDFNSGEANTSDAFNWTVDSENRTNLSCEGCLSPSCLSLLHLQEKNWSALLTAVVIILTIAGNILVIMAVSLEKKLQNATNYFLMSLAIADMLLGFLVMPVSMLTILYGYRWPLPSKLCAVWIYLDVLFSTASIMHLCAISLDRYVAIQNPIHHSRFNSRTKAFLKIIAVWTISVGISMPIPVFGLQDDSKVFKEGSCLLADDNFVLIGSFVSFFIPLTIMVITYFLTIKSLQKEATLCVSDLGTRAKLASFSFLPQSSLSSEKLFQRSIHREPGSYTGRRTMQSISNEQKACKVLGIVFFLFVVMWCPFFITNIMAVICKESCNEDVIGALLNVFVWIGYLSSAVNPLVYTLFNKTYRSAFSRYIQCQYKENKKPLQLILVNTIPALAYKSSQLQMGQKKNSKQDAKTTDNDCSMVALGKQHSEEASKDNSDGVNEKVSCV
To interpret pEC50, take it as minus log10 of a concentration measured in moles per litre.

So what does the record say about pEC50 for C=C(F)COc1ccc(F)cc1[C@H]1C[C@@H]1CN ?
5.78

One more compound: C=C(C)COc1ccc(Cl)cc1[C@H]1C[C@@H]1CN
6.04

// next record C=CCOc1ccc(F)cc1[C@@H]1C[C@H]1CN
6.16

Follow-up entry: CCOc1ccc(Cl)cc1[C@H]1C[C@@H]1CN
5.92

Again, but for NC[C@@H]1C[C@H]1c1cc(F)ccc1OCCF
5.52

Continue with Cl.NC[C@H]1C[C@@H]1c1cc(F)ccc1OCCF
6.44

Do the same for CCCOc1ccc(F)cc1[C@H]1C[C@@H]1CN please
5.99

====

Biological target: 5-hydroxytryptamine receptor 2C (Homo sapiens, UniProt P28335)
Sequence (P28335 whole entry): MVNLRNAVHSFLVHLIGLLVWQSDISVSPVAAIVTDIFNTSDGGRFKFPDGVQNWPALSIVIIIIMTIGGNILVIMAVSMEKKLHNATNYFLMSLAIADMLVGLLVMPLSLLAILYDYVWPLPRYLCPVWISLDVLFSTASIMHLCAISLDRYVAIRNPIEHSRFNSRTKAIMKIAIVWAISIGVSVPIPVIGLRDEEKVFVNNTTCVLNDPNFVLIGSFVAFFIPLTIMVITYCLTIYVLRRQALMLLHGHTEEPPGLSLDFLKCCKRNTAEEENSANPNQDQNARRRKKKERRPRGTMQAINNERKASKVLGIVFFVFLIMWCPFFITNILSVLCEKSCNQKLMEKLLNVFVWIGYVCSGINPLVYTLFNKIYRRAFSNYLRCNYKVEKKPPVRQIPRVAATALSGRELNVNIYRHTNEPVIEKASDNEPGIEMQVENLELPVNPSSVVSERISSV
Experiment: Agonist activity at human 5-HT2C receptor expressed in HEK293 cells assessed as calcium flux by FLIPR assay
Type: functional, cell-based
So I've got a bunch of molecules here, and I need their pEC50 values.
Please note pEC50 is a logarithmic value: minus log10 of concentration in mol/L. Answer with that number alone.

Please give the measured pEC50 for this molecule: C=CCOc1ccc(Cl)cc1[C@H]1C[C@@H]1CN.O=C(O)C(F)(F)F
7.22

Try the molecule C#CCOc1ccc(Cl)cc1[C@H]1C[C@@H]1CN
7.20

Let us now turn to NC[C@@H]1C[C@H]1c1cc(Cl)ccc1OCCF
5.95

Note, next up: CCCOc1ccc(Cl)cc1[C@H]1C[C@@H]1CN
6.99

Try C=CCOc1ccc(Cl)cc1[C@@H]1C[C@H]1CN next.
6.13

What do you get for CC(C)Oc1ccc(Cl)cc1[C@@H]1C[C@H]1CN ?
5.61

Subsequent entry: Cl.NC[C@H]1C[C@@H]1c1cc(Cl)ccc1OCCF
7.49

Another molecule: NC[C@@H]1C[C@H]1c1cc(Cl)ccc1OCCCF
5.90

Now the molecule CCCOc1ccc(Cl)cc1[C@@H]1C[C@H]1CN
5.91

// query: NC[C@@H]1C[C@H]1c1cc(Cl)ccc1OCC(F)F
6.04

Now consider C=CCOc1ccc(F)cc1[C@H]1C[C@@H]1CN.Cl and answer again.
8.38

What do you have for C=CCOc1ccc(F)cc1[C@@H]1C[C@H]1CN ?
6.80

Request: CCCOc1ccc(F)cc1[C@@H]1C[C@H]1CN
6.53

Same question, CCCCOc1ccc(Cl)cc1[C@@H]1C[C@H]1CN this time
6.17

What about NC[C@H]1C[C@@H]1c1cc(Cl)ccc1OCCCF ?
6.69

// same read-out, input: CCOc1ccc(Cl)cc1[C@@H]1C[C@H]1CN
6.19

For C=C(F)COc1ccc(Cl)cc1[C@H]1C[C@@H]1CN.Cl then?
6.88

Please do the same for CCCOc1ccc(F)cc1[C@H]1C[C@@H]1CN as well.
7.96

Queued: C#CCOc1ccc(Cl)cc1[C@@H]1C[C@H]1CN
6.44

Entry C=C(F)COc1ccc(F)cc1[C@H]1C[C@@H]1CN please
7.66

Follow-up entry: CSCCOc1ccc(Cl)cc1[C@@H]1C[C@H]1CN
5.75

# repeat for NC[C@@H]1C[C@H]1c1cc(Cl)ccc1OCC1CC1
5.97

Try COCCOc1ccc(Cl)cc1[C@@H]1C[C@H]1CN next.
6.18

Follow-up item: Cl.NC[C@H]1C[C@@H]1c1cc(F)ccc1OCCF
8.47

# iterate: NC[C@@H]1C[C@H]1c1cc(F)ccc1OCCF
6.29

Another molecule: CCOc1ccc(Cl)cc1[C@H]1C[C@@H]1CN
7.89
